- EXPERIMENT_NOTES: Pharmacokinetic study in mice
- Assay type: in vivo
- CONDITION_NOTES: mouse, blood, po; male CD-1 mice, i.v. 0.25 mpk; p.o. 0.5 mpk
READOUT_NAME: bioavailability
// unit must come after the numeric part

Give reported bioavailability value for CO[C@@H](C)c1ncc(-c2nnc(C3CCN(C4COC4)CC3)o2)cc1-c1c2c3cc(ccc3n1CC(F)(F)F)-c1csc(n1)C[C@H](NC(=O)C1[C@@H](C)[C@H]1C)C(=O)N1N[C@H](C(=O)OCC(C)(C)C2)C2CC1C2 (stereo partly shown)
54.6%

----------
- TARGET_OR_TEST_SYSTEM: cyclophilin A (CypA) (Homo sapiens)
- Construct: purchased R&D 3589-CAB
- Sequence (P62937 whole entry): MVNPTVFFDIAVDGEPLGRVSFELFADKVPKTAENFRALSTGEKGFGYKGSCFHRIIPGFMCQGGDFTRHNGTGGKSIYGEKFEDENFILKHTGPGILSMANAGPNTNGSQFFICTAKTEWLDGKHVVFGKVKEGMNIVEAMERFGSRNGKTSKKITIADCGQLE
- EXPERIMENT_NOTES: Binary complex binding assay (BLI)
- CONDITION_NOTES: His-tagged CypA, pH 7.4, 1:1 binding model, read-out: kdis (dissociation rate constant)
Provide the recorded koff for the entries that follow.
Answers are plain numbers, in s⁻¹.

>>> assay_result("CO[C@@H](C)c1ncc(-c2nnc(C3CCN(C4COC4)CC3)o2)cc1-c1c2c3cc(ccc3n1CC(F)(F)F)-c1csc(n1)C[C@H](NC(=O)C1[C@@H](C)[C@H]1C)C(=O)N1N[C@H](C(=O)OCC(C)(C)C2)C2CC1C2 (some centres unmarked) [Compound 8]")
0.00066

Give reported koff value for CO[C@@H](C)c1ncc(-c2nnc(C3CCN(C4COC4)CC3)o2)cc1-c1c2c3cc(ccc3n1CC(F)(F)F)-c1csc(n1)C[C@H](NC(=O)[C@H]1C[C@@H]1C)C(=O)N1CCC[C@H](N1)C(=O)OCC(C)(C)C2 (atropisomer, axis not shown) [Compound 5]
0.0017

----------
- EXPERIMENT_NOTES: Pharmacokinetic study in mice
- Type: in vivo
- CONDITION_NOTES: mouse, po, 0.5 mg/kg; male CD-1 mice, p.o. 0.5 mpk, whole blood
READOUT_NAME: AUC

Give reported AUC value for CO[C@@H](C)c1ncc(-c2nnc(C3CCN(C4COC4)CC3)o2)cc1-c1c2c3cc(ccc3n1CC(F)(F)F)-c1csc(n1)C[C@H](NC(=O)C1[C@@H](C)[C@H]1C)C(=O)N1N[C@H](C(=O)OCC(C)(C)C2)C2CC1C2 (stereo partly shown) [Compound 8]
2590 ng·h/mL

----------
Provide the recorded pKd for the entries that follow.
- TARGET_OR_TEST_SYSTEM: cyclophilin A (CypA) (Homo sapiens)
- EXPERIMENT_NOTES: Binary complex binding assay (BLI)
- CONDITION_NOTES: His-tagged CypA, pH 7.4, 1:1 binding model, read-out: KD1 (binary complex equilibrium dissociation constant)
One number for each entry, as −log10 of the molar value.

Known pKd results, listed for orientation:
>>> assay_result("CO[C@@H](C)c1ncc(-c2nnc(C3CCN(C4CN(C(C)C)C4)CC3)o2)cc1-c1c2c3cc(ccc3n1CC(F)(F)F)-c1csc(n1)C[C@H](NC(=O)[C@H]1[C@H](C)[C@@H]1C)C(=O)N1CCC[C@H](N1)C(=O)OCC(C)(C)C2 (atropisomer, axis not shown)")
8.57
>>> assay_result("CO[C@@H](C)c1ncc(-c2nnc(C3CCN(C4COC4)CC3)o2)cc1-c1c2c3cc(ccc3n1CC(F)(F)F)-c1csc(n1)C[C@H](NC(=O)[C@H]1[C@H](C)[C@@H]1C)C(=O)N1CCC[C@H](N1)C(=O)OCC(C)(C)C2 (atropisomer, axis not shown)")
8.52

Here's the next entry for you.
Give reported pKd value for CCn1c(-c2cc(-c3nnc(C4CCN(C5CN(C(C)C)C5)CC4)o3)cnc2[C@H](C)OC)c2c3cc(ccc31)-c1csc(n1)C[C@H](NC(=O)[C@H]1C[C@@H]1C)C(=O)N1CCC[C@H](N1)C(=O)OCC(C)(C)C2 (atropisomer, axis not shown)
7.80
